Sourced from the RNAGym collection of RNA variant scans (doi:10.1073/pnas.2313332121)

B1: TPR t1 (parent)
chain: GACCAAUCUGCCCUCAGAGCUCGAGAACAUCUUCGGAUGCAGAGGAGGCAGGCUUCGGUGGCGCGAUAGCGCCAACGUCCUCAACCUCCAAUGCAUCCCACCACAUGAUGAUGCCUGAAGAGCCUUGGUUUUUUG

- Variants of: B1
- Assay name: polymerase ribozyme fitness, log enrichment relative to wild type (log ratio); higher = more active; in vitro selection for triplet polymerase activity
Value type: polymerase ribozyme fitness (log ratio)
Could you respond with only the numeric value?

Biopolymer sequence: GACCAAUCUGGCCUCAGAGCUCGAGAACAUCUUCGGAUGCAGAGGAGGCAGGCUUUGGUGGCGCGAUAGCGCCAAGGUCCUCAACCUCCAAUGCAUCCCACCACAAGAUGAUGCCUGAUGAGCCUUGGUUUUUUG
Value type: polymerase ribozyme fitness (log ratio)
Assay result: -1.85
//
Biopolymer sequence: GACCAAUCUGCCGUCAGAGCUCGAGAACAUCUUCGGAUGCAGAGGAGGCAGGCUUCGGUGGCGCGAUAGCCCCAACGUCCUCAACCUCCAAUGCAUCCCACCACAUGAUGAUGCCUGAAGAGCCUUGGUUUUUUG
Value type: polymerase ribozyme fitness (log ratio)
Assay result: -3.5
//
Biopolymer sequence: GACCAAUUUGCCCUCAGAGCUCGAGAACAUCUUCGGAUGCAGAGGAGGCAGGCUUCGGUGGCGCGAUAGCGCCAACGUCCUCACCCUCCAAUGCAUCCCACCACAUGAUGAUGCCUAAAGAGCCUUGGUUUUUUG
Value type: polymerase ribozyme fitness (log ratio)
Assay result: -0.216
//
Biopolymer sequence: GACCAAUCUGCCCUCAGAGCUCGAGAACAUCUUCGGAUGCAGAGUAGGCAGGCUUCUGUGGCGCGAUAGCGCGAACGACCUCAACCUCCAAUGAAUCCCACCACAUGAUGAUGCCUGAGGAGCCUUGGUUUUUUG
Value type: polymerase ribozyme fitness (log ratio)
Assay result: -0.559
//
Biopolymer sequence: GACCAAUCUGCCCUCAGAGCUCGAGAACAUCUUCGUAUGCAGAGGAGGCAGGCUUCGGUCGCGCGAUAGCGCCAACGUCCUCACCCUCCAAUGCAUCCCACCACAUGAUGAUGCCUGAAGAGCCUUGGUUUUUUG
Value type: polymerase ribozyme fitness (log ratio)
Assay result: -1.87
//
Biopolymer sequence: GACCAAUCUGCCCUCAGAGCUCGAGAACAUCUUCGGAUGCAGAGGAGGCAGGCUUCGGUGGCGCGAUAGCGCCAACGUCCUCAACCACCAAUGCAUCCCACCACAUGAUGAUGCCUGAAGCGCCUUGGUUUUUUG
Value type: polymerase ribozyme fitness (log ratio)
Assay result: 1.23
//
Biopolymer sequence: GACCAAUCUGCCCUCAGAGCUCGAGAACAUCUUCGGAUGCAGAGGAGUCAGGCUUCUGUGGCACGAUAGCGCCAACGUCCUCAACCUCCAAUGCAGCCCCCGACAUGAUGAUGCCUGAACAGCCUUGGUUUUUUG
Value type: polymerase ribozyme fitness (log ratio)
Assay result: -6.73
//
Biopolymer sequence: GACCAAUCUGCCUUCAGAGCUCGAGAACAUCUUCGGAUGCAGAGGAGGCAGGCUUCGGUGGCGCGAUAGCGCCAACGUCCACAACCUCCAAUGCAUCCCACCACAUGAUGAUGCCUGAAGAGCCUUGGUUUUUUG
Value type: polymerase ribozyme fitness (log ratio)
Assay result: -0.11

Alright, here's another variant for you.
Memo: GACCACUCUGCCCUCAGAGCUAGAGAACAUCUUCGGAUGCAGAGGAGGCAGGCUUCGGUGGCGCGAUAGCGCCAACGUCCUCAACCCCCAAUGCAUCCCACCACAUGAUGAUCCCUGAAGAGCCUUGGUUUUUUG , reported polymerase ribozyme fitness (log ratio): -5.35
